- Test system: MDA-N
- Assay method text: NCI tumour cell line growth inhibition, 48 h
Active and inactive are the calls of the source. Rule as the data show it: active = GI50 up to about 1.1 µM and inactive = higher.
GI50: recorded values
Measurement kind: GI50

> print(dat)
                                    molecule               result
 1  Cc1cc(O)c2c(c1)C(=O)C(c1c(C)cc3c(c1O)C(=O)C1OC1C3=O)=CC2=O (stereo not given)   1.27 µM (inactive)
 2  O=C(Cc1ccc(Cl)c(Cl)c1)N(CCc1ccc(Cl)c(Cl)c1)CCN1CCCC1   1.67 µM (inactive)
 3  CN1C(=O)C(CCO)(C(C)(C)C)c2ccccc21 (stereo not given)  > 100 µM (inactive)
 4  COc1cc(/C=N\c2nc(-c3ccc(NS(=O)(=O)c4ccc(Cl)c(OC)c4)cc3)cs2)ccc1O   29.6 µM (inactive)
 5  O=C1C(NS(=O)(=O)c2ccccc2)=C(n2cnc3ccccc32)C(=O)c2ccccc21  > 100 µM (inactive)
 6  O=C1C(Cl)=C(c2ccc([N+](=O)[O-])cc2)C(=O)c2c(O)cccc21   2.49 µM (inactive)
 7  CC(C)=C1CCC(CN2CCOCC2)C1=O (stereo not given)   19.1 µM (inactive)
 8   C#CCSc1cnc2ccccc2c1Sc1c[nH]c2ccccc2c1=O   18.1 µM (inactive)
 9       Cc1cc(S(=O)(=O)NC2=NCCCN2)c(S)cc1Cl   43.9 µM (inactive)
10  O=S1(=O)OCCOS(=O)(=O)C1Cc1nc2ccccc2[nH]1   22.3 µM (inactive)

====

- Tested on: HT-29
- Assay method text: NCI tumour cell line growth inhibition, 48 h
Activity calls are given as the source filed them. Cut-off read from the data, not from the text of the source: active = GI50 up to about 1.1 µM and inactive = higher.
Classes used: T = active, F = inactive

> print(dat)
                                   compound  cat
1       Cc1cc(S(=O)(=O)NC2=NCCCN2)c(S)cc1Cl    F
2          O=c1[nH]cc(OCC(F)(F)F)c(=O)[nH]1    F
3  N#Cc1ccccc1NC(=O)C(=O)C1NC(=S)NC1=O (centres undefined)    F
4  Cc1cc(NS(=O)(=O)c2ccc(NC(=O)c3ccc(Cl)c4c(Nc5ccc(S(N)(=O)=O)cc5)c5ccccc5nc34)cc2)no1    F
5  O=C1C(Br)=C(C2=CC(=P(c3ccccc3)(c3ccccc3)c3ccccc3)C=C2)C(=O)C(Br)=C1C1=CC(=P(c2ccccc2)(c2ccccc2)c2ccccc2)C=C1    F
6  C=CCc1cc(-c2cc(CC=C)c(O)c(CN(CC)CC)c2)cc(CN(CC)CC)c1O    F
7      Cc1cccc2nc3c(C(=O)NCCN(C)C)cccc3cc12    T
8  CCOC(=O)C1=C(C)C2C=C(c3cccs3)CC(c3ccc(Cl)cc3)=C2OC1=O (centres undefined)    F
9  Cc1ccc(NC(=O)CC(=O)N2N=C(c3ccccc3)C(/N=N/c3ccc(S(=O)(=O)CCOS(=O)(=O)O)cc3)C2=O)cc1 (centres undefined)    F

====

- Tested on: IGROV-1
- Assay method text: NCI tumour cell line growth inhibition, 48 h
Activity calls are given as the source filed them. Cut-off read from the data, not from the text of the source: active = GI50 up to about 1.1 µM and inactive = higher.
Listed here: items and their measured GI50.
Measurement kind: GI50

> print(dat)
                                    compound               result
 1            CC(=O)Nc1ccccc1-c1cnc2ccccc2n1  > 100 µM (inactive)
 2          S=c1sc2c(Cl)nc(Cl)nc2n1-c1ccccc1   18.2 µM (inactive)
 3  CCOC(=O)C1=C(C)N(NC(N)=O)C2(N)N(NC(N)=O)C(C)=C(C(=O)OCC)C12C(=O)OCC (stereo not given)  > 100 µM (inactive)
 4         C=CCn1c(N)c(C#N)c(C#N)c1-c1ccccc1  > 100 µM (inactive)
 5  O=[N+]([O-])c1ccc2ncccc2c1CCc1c([N+](=O)[O-])ccc2ncccc12  > 100 µM (inactive)
 6  O=C1C(Cl)=C(c2ccc([N+](=O)[O-])cc2)C(=O)c2c(O)cccc21   2.39 µM (inactive)
 7  O=c1[nH]c(=O)n(C2CC(O)C(CO)O2)cc1/N=N/NCCCc1ccccc1 (stereo not given)  > 100 µM (inactive)
 8  Cc1cc(N)c2ccccc2[n+]1CCCCCCCCCC[n+]1c(C)cc(N)c2ccccc21 [DEQUALINIUM CHLORIDE]   1.72 µM (inactive)
 9  CO[C@@H]1/C=C\C=C(/C)C(=O)NC2=CC(=O)C(NCCN(C)C)=C(C[C@@H](C)C[C@@H](OC)[C@@H](O)[C@H](C)/C=C(\C)[C@H]1OC(N)=O)C2=O   < 0.01 µM (active)
10           Nc1c(Br)cc(-c2nc3ccccc3s2)cc1Br   5.12 µM (inactive)
11  O=C(Cc1ccc(Cl)c(Cl)c1)N(CCc1ccc(Cl)c(Cl)c1)CCN1CCCC1   1.74 µM (inactive)
12  COc1cc(C(=O)N(C(=O)N2CCCCC2)c2ccccc2)cc(OC)c1OC  > 100 µM (inactive)
13  COC(C)(C)C1(O)CCC(C)CC1=O (stereo not given)  > 100 µM (inactive)
14  O=C1CSC(c2c(O)ccc3ccccc23)N1n1c(S)nnc(/C=C/c2c(O)ccc3ccccc23)c1=O (stereo not given)   2.28 µM (inactive)
15  Cc1c2cc[n+](Cc3ccc(I)cc3)cc2c(C)c2c1[nH]c1ccccc12      1.1 µM (active)
16  CC(C)C(NCc1c(O)ccc2c(-c3ccccc3)cc(=O)oc12)C(=O)O (stereo not given)  > 100 µM (inactive)
17  Cc1ccc(NC(=O)CC(=O)N2N=C(c3ccccc3)C(/N=N/c3ccc(S(=O)(=O)CCOS(=O)(=O)O)cc3)C2=O)cc1 (stereo not given)   41.6 µM (inactive)
18  COc1cc2nc(-c3cccs3)nc(Nc3cccc(Cl)c3)c2cc1OC   61.1 µM (inactive)
19  O=c1/c(=C/c2cccc3ccccc23)sc2nc3ccccc3n12  > 100 µM (inactive)
20  COc1cc2c(c(OC)c1OC)-c1ccc(SC)c(=O)cc1C(NC(=O)c1ccccc1)CC2 (stereo not given)   < 0.01 µM (active)

====

- Test system: CAKI-1
- Assay method text: NCI tumour cell line growth inhibition, 48 h
The source made the active and inactive calls. Rule as the data show it: active = GI50 up to about 1.1 µM and inactive = higher.
GI50 for assorted compounds
Measurement kind: GI50

> print(dat)
                                   compound  measurement.kind                result
1     CC(C)c1ccc(/C(C(=O)O)=C(\O)C(=O)O)cc1              GI50   > 100 µM (inactive)
2  CCN(CC)C(=S)SS(=O)(=O)c1ccc([N+](=O)[O-])cc1              GI50    18.8 µM (inactive)
3                      CO/C=C1\OC(=O)C=C1OC              GI50   > 100 µM (inactive)
4  O=C(NCCc1ccccn1)c1ccc2cc(C(=O)N3CC(CCl)c4ccc([N+](=O)[O-])cc43)[nH]c2c1 (stereo unspecified)              GI50  > 24.2 µM (inactive)
5  CCOC(=O)c1cnn2c1ncc1c(=O)n(NC(N)=O)ccc12              GI50   > 100 µM (inactive)
6  COC(=O)C1(Cc2ccc3c(c2)CCC3)Cc2ccccc2C1=O (stereo unspecified)              GI50    19.6 µM (inactive)

====

Form field: GI50 (one value per entry).
- Tested on: HCC 2998
- Assay method text: NCI tumour cell line growth inhibition, 48 h
Activity calls are given as the source filed them. Rule as the data show it: active = GI50 up to about 1.1 µM and inactive = higher.
Measurement kind: GI50

> print(dat)
                                    molecule               result
 1  CC(=O)NNc1nc(C)c(C(=O)NNC(=O)C(=O)Nc2cccc(C(C)=O)c2)s1   17.3 µM (inactive)
 2                      CO/C=C1\OC(=O)C=C1OC  > 100 µM (inactive)
 3        Cn1c(=O)c2nc(N3CCOCC3)cnc2n(C)c1=O  > 100 µM (inactive)
 4          COCOc1cc(OC)ccc1C/C(=N/O)C(=O)OC  > 100 µM (inactive)
 5  O=C(CCCN1CCC(Nc2ccc(F)cc2)(c2nnnn2C2CCCCC2)CC1)c1ccc(F)cc1   16.3 µM (inactive)
 6  C=CCOC1=C(OCC=C)C(C2COC(C)(C)O2)OC1=O (stereo not given)  > 100 µM (inactive)
 7       COc1cc(/C=C(\C#N)c2ccccn2)cc(Br)c1O   36.8 µM (inactive)
 8          COc1cccc(-c2cc(=O)c3ccccc3o2)c1N   28.2 µM (inactive)
 9  CC1(C)CC(=O)C(CC2C(=O)c3ccccc3C2=O)C(=O)C1  > 100 µM (inactive)
10  O=[N+]([O-])c1ccc2ncccc2c1CCc1c([N+](=O)[O-])ccc2ncccc12  > 100 µM (inactive)
11                          Oc1ncc(Cl)c(O)n1  > 100 µM (inactive)
12  O=C1OC(O)C(Oc2c(Cl)cccc2Cl)=C1Cl (stereo not given)   23.3 µM (inactive)
13  c1ccc2nn(C3CCCO3)nc2c1 (stereo not given)  > 100 µM (inactive)
14  COc1ccc(-n2cnc3c(NC(C)(C)C(=O)O)ncnc32)cc1  > 100 µM (inactive)
15  COc1c2occc2c(OC)c2c(=O)c(S(=O)(=O)NC(=O)Nc3ccc(Cl)cc3)coc12   > 10 µM (inactive)
16  O=S1(=O)OCCOS(=O)(=O)C1Cc1nc2ccccc2[nH]1   54.7 µM (inactive)
17  C[C@@H]1[C@H](c2ccccc2)O[B-]2(c3ccc(Br)cc3)OC(=O)C[N+]12C (stereo not given in full)  > 100 µM (inactive)
18  Cc1c(/C=N/NC(=O)c2ccccc2)c(=O)n(-c2ccccc2)n1C  > 100 µM (inactive)
19  CC[C@@H]1CSC(/C=C/C2OC3OC(C)(C)OC3C3OC(C)(C)OC23)=N1 (stereo not given in full)   3.03 µM (inactive)
20  NC1CC(N)c2c(Br)sc(Br)c21 (stereo not given)   55.8 µM (inactive)
21  CC(C)(C)n1c(=O)n(-c2ccccc2)n(C(C)(C)C)c1=O  > 100 µM (inactive)
22  C/C(=N\NC(=O)C[n+]1ccccc1)c1sc(-c2nc(C)c(/C(C)=N/NC(=O)C[n+]3ccccc3)s2)nc1C  > 100 µM (inactive)
23  CC(C)C12C=CC(C)(CC1)n1c(=O)c3cc4ccccc4cc3c(=O)n12 (stereo not given)   33.7 µM (inactive)
24  Cc1cc(C)nc(NS(=O)(=O)c2ccc(NNc3c4ccccc4nc4c(C(=O)Nc5ccc(S(=O)(=O)Nc6ncccn6)cc5)cccc34)cc2)n1   26.7 µM (inactive)
25  COc1cccc([C@@H]2CC(=O)c3cc4c(cc3N2)OCO4)c1  > 100 µM (inactive)

All figures here come from ChEMBL document CHEMBL1201862.
